target: Gal6S(b1-4)Glc6S; experiment: glycan array binding signal (z-score within array); higher = stronger binding; conditions: glycan notation: IUPAC condensed, linker removed
The full list was thinned out, with the strongest signals kept by preference.
observedProperty: glycan array binding signal (z-score)

| binder | glycan array binding signal (z-score) |
| --- | --- |
| Epa23 (Candida glabrata) (protein) MGSSHHHHHHSSGLVPRGSHMIPNPFEGTINNFPSGCSPNHGLYNRGLTMELYNYSYIHPQSIQSYFNTSTLKKMEKGQCWDPSYLDVNYPRTGYKTHNRFAKVNGIDGILDFEFNPTRSCVPSKGQLPQNYNYPLQFTLSNFTMLLYGYFKPKVTAKHTFTIFADDLLFLNFGAGNAFDCCQQQDTIDDFGNYQAYALWGSDTQQNTLTVNLDANIYYPIRMFYNNRDFKGALNMYFTTDESNTKINDFSGYLFNIPDSSEGCPAHISYETECGNVSG | 11.8 |

Here are 2 binders. What values of glycan array binding signal (z-score) were reported for them?
1. Fap1 (Streptococcus parasanguis) (protein) KATSKGTEEKQDSVRENLDKMISEAEVLNDMAARKLITLDAEQQLELMKSLVATQSQLEATKNLIGDPNATVADLQIAYTTLGNNTQALGNELIKLNPNGQIYAVLNNTEASRAATLRSTTTGTKTTFTISDFSNGGTQYYWAGGNANNLKNPISSISAVYDSATGKISWTVEYDPTTILKSPALKTLKTYTGIYIDTSSDSKLSTPTNVLIDGAATNPVTNFYGNGSKGIEYVSKGTTKGVTKHTITFDTAFSGRANDLADLEIKMLAATTLSDPHFYEDGSKGNYGRYNGQTAPYVIANDSGTAIGGYQVSGVNADSIPSDTT
2. LecB LY19 (Pseudomonas aeruginosa) (protein) MATQGVFTLPANTQFGVTAFANSAGTQTVNVQVNNETVATFTGQSTNNGIIGSKVLNSGGGGKVQILVSVNGRSSDLVSAQVILANELNFALVGSEDSTDNDYNDAVVVINWPLG

[-0.521, -0.533]
